Hi there, I'd appreciate the recorded EC50 (nM), IFN-γ secretion, human PBMC co-culture with 4T1-D02(Nectin4+) for every entry that follows.
target: CD137 on human PBMC (anti-CD3 stimulated) (human, UniProt Q07011 24-255); experiment: cell-based or functional assay
Sequence (Q07011 24-255): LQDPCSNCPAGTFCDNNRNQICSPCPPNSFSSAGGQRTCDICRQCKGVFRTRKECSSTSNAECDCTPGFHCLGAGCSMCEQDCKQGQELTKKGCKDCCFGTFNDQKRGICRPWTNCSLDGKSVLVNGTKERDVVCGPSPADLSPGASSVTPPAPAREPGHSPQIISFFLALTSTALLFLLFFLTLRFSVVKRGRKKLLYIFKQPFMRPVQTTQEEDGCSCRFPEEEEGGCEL
Starred links: 1 amine or outer side, 2 acyl side, 3 side chain; linkers in the order of their positions; H or OH if unused. Positions of bridges follow the written chain, without caps; N, C: chain ends. Non-standard residues stand in square brackets, D forms with d. Chains are numbered I, II in the order given. No end group written: not given here. *: point of attachment. TATA = O=C(CC[*:1])N1CN(C(=O)CC[*:2])CN(C(=O)CC[*:3])C1; 1Nal = N[C@@H](Cc1cccc2ccccc12)C(=O)O; Hyp = O=C(O)[C@@H]1C[C@@H](O)CN1; hArg = N=C(N)NCCCC[C@H](N)C(=O)O; tBuAla = CC(C)(C)C[C@H](N)C(=O)O; Nle = CCCC[C@H](N)C(=O)O; Pent4ynoyl = C#CCCC(=O)*; Dap = NC[C@H](N)C(=O)O; βAla = NCCC(=O)O; Sar = CNCC(=O)O
Write the numeric value and follow it with the unit.

Quick one: EC50 (nM), IFN-γ secretion, human PBMC co-culture with 4T1-D02(Nectin4+) of heterotandem bicyclic peptide complex BCY10572 (linker I:1-I:5-I:15, II:1-II:8-II:15 via TATA; not fully specified (C-terminus, bridges); also: chains joined by PEG5 linker on chain 1 N-terminus, triazole to D-Lys(PYA)) peptide 1: CP[1Nal][dD]CM[hArg]DWSTP[Hyp]WC peptide 2: Ac-C[tBuAla]PE[dK](Pent4ynoyl)PYCFADPY[Nle]CA ?
0.25 nM

Consider the binder heterotandem bicyclic peptide complex BCY10000 (linker I:11-I:15-I:25, II:1-II:8-II:15 via TATA; not fully specified (C-terminus); numbers in words are those of the source; also: linker to a chain's N/C-terminus via PEG12) peptide 1: {Pent4ynoyl-βAla}-[Sar][Sar][Sar][Sar][Sar][Sar][Sar][Sar][Sar][Sar]CP[1Nal][dD]CM[hArg]DWSTP[Hyp]WC peptide 2: Ac-C[tBuAla]PE[dA]PYCFADPY[Nle]C[Dap] and give its measured EC50 (nM), IFN-γ secretion, human PBMC co-culture with 4T1-D02(Nectin4+).
0.21 nM

Item heterotandem bicyclic peptide complex BCY8854 (BCY7732: N-terminal acetyl; Nle12; C-terminal Dap (diaminopropionic acid) bearing the linker; Ci, Cii, Ciii on TATA scaffold; BCY8846: N-terminal [PYA]-[B-Ala]-[Sar10]- (linker on PYA); 1Nal2, dD3, HArg5, HyP11; Ci, Cii, Ciii on TATA scaffold) peptide 1: CPXDCMXDWSTPXWC peptide 2: ACIEEGQYCFADPYXC has what recorded EC50 (nM), IFN-γ secretion, human PBMC co-culture with 4T1-D02(Nectin4+)?
0.89 nM

Quick one: EC50 (nM), IFN-γ secretion, human PBMC co-culture with 4T1-D02(Nectin4+) for heterotandem bicyclic peptide complex BCY10571 (linker I:1-I:5-I:15, II:1-II:8-II:15 via TATA; not fully specified (C-terminus, bridges); also: chains joined by PEG5 linker on chain 1 N-terminus, triazole to K(PYA)) peptide 1: CP[1Nal][dD]CM[hArg]DWSTP[Hyp]WC peptide 2: Ac-C[tBuAla]PK(Pent4ynoyl)[dA]PYCFADPY[Nle]CA ?
0.44 nM

Recorded values, source patent US20190307836A1.
